All figures here come from patent US8716436B2.

# tested-system: cloned human delta opioid receptor (Homo sapiens)
# Sequence (P41143 whole entry): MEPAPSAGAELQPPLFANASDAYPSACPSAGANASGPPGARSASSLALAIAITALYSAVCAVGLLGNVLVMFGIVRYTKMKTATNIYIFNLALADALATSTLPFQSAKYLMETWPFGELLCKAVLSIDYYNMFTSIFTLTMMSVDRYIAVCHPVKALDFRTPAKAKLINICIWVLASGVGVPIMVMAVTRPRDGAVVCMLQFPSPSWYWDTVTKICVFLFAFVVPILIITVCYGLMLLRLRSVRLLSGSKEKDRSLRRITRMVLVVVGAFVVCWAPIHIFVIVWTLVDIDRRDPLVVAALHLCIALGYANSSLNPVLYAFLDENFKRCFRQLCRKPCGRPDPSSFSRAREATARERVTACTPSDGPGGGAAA
# method-summary: biochemical
Where a SMILES comes first, the peptide text is derived from it.
experimental-readout: pEC50
Scale for pEC50: -log10 of concentration given in mol/L; no unit attached.

{"columns": ["molecule", "observed-measurement"],
 "data": [
  ["N[C@@H](Cc1ccc(O)cc1)C(=O)N[C@@H]1CCCCNC(=O)[C@H](Cc2ccccc2)NC(=O)[C@H](Cc2ccccc2)NC1=O [ck2, Tyr-c[D-Lys-Phe-Phe], reference compound] (HELM PEPTIDE1{Y.[dK].F.F}$PEPTIDE1,PEPTIDE1,2:R3-4:R2$$$V2.0; bridges inferred)", 8.15]
]}

Enquiry: Report pEC50 for N[C@@H](Cc1ccc(O)cc1)C(=O)N[C@@H]1CCCCNC(=O)[C@H](Cc2ccccc2)NC(=O)[C@H](Cc2c[nH]c3ccccc23)NC1=O [ck1, Tyr-c[D-Lys-Trp-Phe], reference compound] (HELM PEPTIDE1{Y.[dK].W.F}$PEPTIDE1,PEPTIDE1,2:R3-4:R2$$$V2.0; bridges inferred) please.
Return: 6.86
